Entries and their log K values follow.
test: Iron chelating activity of the compound assessed as stability constant of Fe3+-compound complex after 5 min by spectrophotometric titration analysis; type: physicochemical
Just the number.

Sample answers from the record:
Query string: Give its log K value. Item: COCCn1ccc(=O)c(O)c1C(=O)NCCN(CCNC(=O)c1c(O)c(=O)ccn1CCOC)CCNC(=O)c1c(O)c(=O)ccn1CCOC
Result string: 32.3

Query string: Name the recorded log K for O=C(NCCN(CCNC(=O)c1c(O)c(=O)ccn1CCOCCO)CCNC(=O)c1c(O)c(=O)ccn1CCOCCO)c1c(O)c(=O)ccn1CCOCCO .
Result string: 32

Query string: Please look up its log K: O=C(NCCN(CCNC(=O)c1[nH]ccc(=O)c1O)CCNC(=O)c1[nH]ccc(=O)c1O)c1[nH]ccc(=O)c1O
Result string: 30.7

Query string: Fill in the blank: the reported log K of Cn1ccc(=O)c(O)c1C(=O)NCCN(CCNC(=O)c1c(O)c(=O)ccn1C)CCNC(=O)c1c(O)c(=O)ccn1C is ____.
Result string: 32.1

---
Query string: If you can, please state the reported log K value of CCn1ccc(=O)c(O)c1C(=O)NCCN(CCNC(=O)c1c(O)c(=O)ccn1CC)CCNC(=O)c1c(O)c(=O)ccn1CC .
Result string: 32.6
